Cited source for all entries: the supplement of paper PMC10065799

molecular target: MERTK (UniProt Q12866); assay: phosphorylation enrichment, bacterial display (enrichment ratio); higher = better substrate or ligand; peptides without Tyr show the background;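 also: 11-residue human phosphosite peptides and single-mutation variants displayed on the E. coli surface, counted by deep sequencing, each peptide's frequency after selection divided by its frequency in the unselected input library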;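 also: frequency after pTyr selection over input frequency; kinase dosed for 20-30% of maximal phosphorylation in three min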
Sequence (Q12866 whole entry, looked up): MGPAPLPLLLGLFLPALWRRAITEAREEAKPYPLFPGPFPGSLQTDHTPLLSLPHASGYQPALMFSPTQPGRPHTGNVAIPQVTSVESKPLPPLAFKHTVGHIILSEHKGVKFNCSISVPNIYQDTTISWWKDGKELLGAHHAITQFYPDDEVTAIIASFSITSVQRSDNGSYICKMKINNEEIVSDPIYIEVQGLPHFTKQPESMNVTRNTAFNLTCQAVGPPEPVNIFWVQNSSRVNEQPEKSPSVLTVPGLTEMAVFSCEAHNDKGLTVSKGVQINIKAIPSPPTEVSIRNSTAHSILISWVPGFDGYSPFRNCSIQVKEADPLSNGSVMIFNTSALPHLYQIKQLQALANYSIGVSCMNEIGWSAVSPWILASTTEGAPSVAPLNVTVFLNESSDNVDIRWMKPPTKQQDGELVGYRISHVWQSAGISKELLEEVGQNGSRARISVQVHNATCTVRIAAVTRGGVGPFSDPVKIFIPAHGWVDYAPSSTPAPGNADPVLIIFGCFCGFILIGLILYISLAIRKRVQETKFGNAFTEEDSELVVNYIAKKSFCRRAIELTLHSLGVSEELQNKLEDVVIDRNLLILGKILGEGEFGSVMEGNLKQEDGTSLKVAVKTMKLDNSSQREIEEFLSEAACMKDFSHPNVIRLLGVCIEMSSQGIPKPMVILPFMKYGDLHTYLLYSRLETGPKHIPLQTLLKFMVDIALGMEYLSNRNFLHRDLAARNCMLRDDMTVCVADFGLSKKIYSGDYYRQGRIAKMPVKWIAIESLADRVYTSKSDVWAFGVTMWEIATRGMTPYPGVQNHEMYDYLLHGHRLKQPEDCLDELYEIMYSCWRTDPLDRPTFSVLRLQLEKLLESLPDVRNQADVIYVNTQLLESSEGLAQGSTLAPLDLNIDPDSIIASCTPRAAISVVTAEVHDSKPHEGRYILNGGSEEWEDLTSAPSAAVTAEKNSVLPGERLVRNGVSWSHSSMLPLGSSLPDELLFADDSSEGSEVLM
Observed property: phosphorylation enrichment

[[record]]
seq = "AKLDEYIAIAK [RCOR3_Y46]"
tested_target = "MERTK (UniProt Q12866)"
value_observed = 0.522

[[record]]
seq = "GRLGEYDIDEV [SMS_Y134_V132G]"
tested_target = "MERTK (UniProt Q12866)"
value_observed = 0.494

[[record]]
seq = "VHNLDYYKQTT [FGFR3_Y647_K650Q]"
tested_target = "MERTK (UniProt Q12866)"
value_observed = 0.607

[[record]]
seq = "SLLVVYPWTQR [HBB_Y36_R31S]"
tested_target = "MERTK (UniProt Q12866)"
value_observed = 0.374

[[record]]
seq = "PTYEHYANSTQ [SLC12A3_Y70]"
tested_target = "MERTK (UniProt Q12866)"
value_observed = 0.912

[[record]]
seq = "RMQLPYDSTWE [PDGFRB_Y589_P584R]"
tested_target = "MERTK (UniProt Q12866)"
value_observed = 0.447

[[record]]
seq = "RESFKYLPSSL [CXXC1_Y218_F219L_YF]"
tested_target = "MERTK (UniProt Q12866)"
value_observed = 0.286

